Target: Leucine-rich repeat serine/threonine-protein kinase 2 [1326-2527] (Homo sapiens, UniProt Q5S007)
Sequence (Q5S007 whole entry): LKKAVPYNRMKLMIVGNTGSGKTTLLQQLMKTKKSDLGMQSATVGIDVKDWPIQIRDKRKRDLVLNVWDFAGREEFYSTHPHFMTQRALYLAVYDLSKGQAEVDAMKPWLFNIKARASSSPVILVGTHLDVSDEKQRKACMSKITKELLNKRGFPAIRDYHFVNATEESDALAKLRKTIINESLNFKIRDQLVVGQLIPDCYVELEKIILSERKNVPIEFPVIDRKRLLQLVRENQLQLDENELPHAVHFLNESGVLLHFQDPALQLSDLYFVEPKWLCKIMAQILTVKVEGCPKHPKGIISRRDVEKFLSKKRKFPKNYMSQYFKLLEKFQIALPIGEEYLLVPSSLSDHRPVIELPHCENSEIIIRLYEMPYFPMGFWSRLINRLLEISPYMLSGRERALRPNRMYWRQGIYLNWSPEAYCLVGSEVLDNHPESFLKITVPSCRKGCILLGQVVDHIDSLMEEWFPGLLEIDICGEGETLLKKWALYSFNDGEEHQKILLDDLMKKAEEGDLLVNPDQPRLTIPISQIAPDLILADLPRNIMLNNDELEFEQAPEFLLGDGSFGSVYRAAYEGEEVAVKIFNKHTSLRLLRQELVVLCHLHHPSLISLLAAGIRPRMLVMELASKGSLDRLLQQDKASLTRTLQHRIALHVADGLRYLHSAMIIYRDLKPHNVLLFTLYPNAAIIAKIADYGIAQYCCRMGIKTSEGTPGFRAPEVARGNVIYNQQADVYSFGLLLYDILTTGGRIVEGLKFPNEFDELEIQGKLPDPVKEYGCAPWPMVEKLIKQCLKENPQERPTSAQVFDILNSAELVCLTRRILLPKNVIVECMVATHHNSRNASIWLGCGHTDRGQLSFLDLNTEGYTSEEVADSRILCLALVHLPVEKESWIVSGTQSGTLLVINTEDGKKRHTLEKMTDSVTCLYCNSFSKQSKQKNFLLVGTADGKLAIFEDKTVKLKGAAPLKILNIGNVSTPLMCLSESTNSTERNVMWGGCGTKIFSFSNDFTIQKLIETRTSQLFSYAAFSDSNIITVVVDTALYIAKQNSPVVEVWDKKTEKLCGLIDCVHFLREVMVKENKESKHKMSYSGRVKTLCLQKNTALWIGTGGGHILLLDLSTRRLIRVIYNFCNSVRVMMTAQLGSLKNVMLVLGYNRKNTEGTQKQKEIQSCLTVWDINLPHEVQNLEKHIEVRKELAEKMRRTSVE
property measured: IC50
Answer format: number, then unit.

Looking up CNc1nc(Nc2ccc(C(=O)N3CCOCC3)cc2OC)nc2[nH]ccc12 , I found its IC50 recorded as 2.6 nM

All figures here come from BindingDB's records for patent US10913744.
